A collection of molecules and their measured pIC50
Molecular target: human SIRT2 catalytic domain (6xHis-SUMO-SIRT2) (Homo sapiens)
Assay: biochemical
// pIC50: -log10(molar conc.)

Ask: Sample `O=c1/c(=C\c2cc(Br)cc(I)c2O)sc2nc3ccccc3n12` — what was its pIC50?
Reply: 5.16

Ask: Sample CCCCCCCCCCCCCCCC(=O)OC[C@H](O)[C@H]1OC(=O)C(O)=C1O [ascorbyl palmitate] — what was its pIC50?
Reply: 5.70

====

Target: SIRT2 (Homo sapiens)
Sequence (Q8IXJ6 34-356): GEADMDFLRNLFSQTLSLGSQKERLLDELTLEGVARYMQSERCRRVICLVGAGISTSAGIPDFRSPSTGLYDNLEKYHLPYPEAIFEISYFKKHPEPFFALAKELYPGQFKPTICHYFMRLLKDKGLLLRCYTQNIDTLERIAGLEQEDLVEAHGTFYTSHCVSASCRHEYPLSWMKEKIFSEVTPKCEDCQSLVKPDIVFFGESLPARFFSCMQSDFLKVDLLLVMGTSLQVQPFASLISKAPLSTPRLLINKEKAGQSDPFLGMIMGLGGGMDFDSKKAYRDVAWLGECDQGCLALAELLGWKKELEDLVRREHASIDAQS
Assay: SIRT2 de-dodecanoylase activity assay (MALDI-MS, dodecanoyl-H4K16 peptide)
Format: biochemical
Details: 0.5 μM dodecanoyl-H4K16, 1 mM NAD+
Description: The enzymatic activity of SIRT2 was measured using a MALDI-MS—based protocol reported previously. Reactions were performed at 37°C for 2.5 min in PBS containing 1 mM DTT and 1 mM of NAD^+. Acylated H4K16 peptides were used as the substrates at the following concentrations: acetyl-H4K16, 4 μM; decanoyl-H4K16, 0.2 μM; dodecanoyl-H4K16, 0.5 μM; myristoyl-H4K16, 0.5 μM. These concentrations correspond to the enzyme’s Km for each substrate under saturating NAD^+ conditions. […]
ENDPOINT: pIC50
// pIC50: -log10(molar conc.)

Ask: Sample O=c1/c(=C\c2cc(Br)cc(I)c2O)sc2nc3ccccc3n12 [compound 1] — what was its pIC50?
Reply: 4.41

====

Target: UniProt Q8IXJ6
Assay: SIRT2 binding competition assay using Cy3-myristoyl-H4K16 peptide
Conditions: calculated from IC50 of Cy3-myristoyl-H4K16 peptide competition assay
ENDPOINT: Kd
A complete answer gives the number and then names the unit.

Ask: Sample `O=c1/c(=C\c2cc(Br)cc(I)c2O)sc2nc3ccccc3n12` — what was its Kd?
Reply: 5 µM

====

Target: SIRT2 (Homo sapiens)
Experiment: SIRT2 de-decanoylase activity assay (MALDI-MS, decanoyl-H4K16 peptide)
Format: biochemical
Conditions: 0.2 μM decanoyl-H4K16, 1 mM NAD+
ENDPOINT: pIC50
// pIC50: -log10(molar conc.)

Ask: Sample `O=c1/c(=C\c2cc(Br)cc(I)c2O)sc2nc3ccccc3n12` — what was its pIC50?
Reply: 5.10
